test: CEETOX_H295R_OHPREG: CeeTox H295R High-throughput Steroidogenesis Assay for OH-Pregnenolone (OHPREG) (AID 2283434); settings: actives raise or lower the signal
Active and inactive are the calls of the source. The calls were made as follows: active = hit-call score of the fitted dose curve at least 0.9, where 1 is the maximum; inactive = score below 0.9.
Response enum: active, inactive

Use these answered entries as a reference point.
| COMPOUND_STRUCTURE | CLASS |
| --- | --- |
| C[C@]12CC[C@@H]3c4ccc(O)cc4CC[C@H]3[C@@H]1CC[C@@H]2O | active |
| CCCc1ccc(O)cc1 | inactive |
| O=C(OCc1ccccc1)c1ccccc1O | inactive |

stdin: Given CC(=O)C1=C(C)[C@@H]2C[C@@]3(C1)[C@H](C)CC[C@H]3C2(C)C , state the outcome it received in this test.
stdout: inactive

stdin: Given COc1ccc2[nH]cc(CCNC(C)=O)c2c1 , state the outcome it received in this test.
stdout: inactive

stdin: Given O=C(c1ccc(OCCN2CCCCC2)cc1)c1c(-c2ccc(O)cc2)sc2cc(O)ccc12 , state the outcome it received in this test.
stdout: active
